Where do the numbers come from? From paper PMC4317638.

Answer each item with its documented IC50.
System: HeLa cells
Conditions: human
Note: unit µM is implicit; provide only the numeric part.

Quick one: IC50 for COc1cccc2c1C(=O)c1c(O)c3c(c(O)c1C2=O)C[C@@](O)(C(C)=O)C[C@@H]3O[C@H]1C[C@H](N)[C@H](O)[C@H](C)O1 ?
250

Given the entry CN1CCN(CCCN2c3ccccc3Sc3ccc(C(F)(F)F)cc32)CC1 , report its measured IC50.
97

----------
System: Ebola VLP entry into HeLa cells
Assay: microbe, parasite or virus in culture
Format: cell-based, Ebola virus
Conditions: Zaire ebolavirus, HeLa, read-out: Block Ebola VLP entry Max. Inh.
Counter-ions that a name gives are not always drawn.
measure: Emax (%)
Write the answer as a number in %, unit excluded.

# input compound: CCN(CC)CCOc1ccc(C(=C(Cl)c2ccccc2)c2ccccc2)cc1 ; wanted: its Emax
92

Reported Emax for CCN(CC)CCNC(=O)c1c(C)[nH]c(/C=C2\C(=O)Nc3ccc(F)cc32)c1C : what is it?
90

Tell me the measured Emax of CN1CCN(CC/C=C2/c3ccccc3Sc3ccc(S(=O)(=O)N(C)C)cc32)CC1 , please.
100

Reported Emax, compound O=C(Nc1ccc([N+](=O)[O-])cc1Cl)c1cc(Cl)ccc1O [Niclosamide] : ____
81

If you can, please state the reported Emax value of CCN(CC)CCCN(c1ccccc1)C1Cc2ccccc2C1 .
93

What value of Emax has been recorded for this entry: C[C@H]1O[C@@H](O[C@H]2[C@@H](O)C[C@H](O[C@H]3[C@@H](O)C[C@H](O[C@H]4CC[C@@]5(C)[C@H](CC[C@@H]6[C@@H]5C[C@@H](O)[C@]5(C)[C@@H](C7=CC(=O)OC7)CC[C@]65O)C4)O[C@@H]3C)O[C@@H]2C)C[C@H](O)[C@@H]1O
68

Please give the measured Emax for this compound: CC(=O)c1ccc2c(c1)N(CCCN1CCC(CCO)CC1)c1ccccc1S2
90

Please look up its Emax: O=C(CCN1CCN2CCCC2C1)N1c2ccccc2Sc2ccc(Cl)cc21 (centres unmarked)
88

I am curious: what Emax value has been reported for CC[C@@H]([C@H](C)O)n1ncn(-c2ccc(N3CCN(c4ccc(OC[C@@H]5CO[C@@](Cn6cncn6)(c6ccc(F)cc6F)C5)cc4)CC3)cc2)c1=O ?
77

Which Emax is reported for this compound? CCN(CCCc1ccccc1)CCCc1ccccc1 [Alverine Citrate]
90

Emax for CCCNCC(O)COc1ccccc1C(=O)CCc1ccccc1 (centres unmarked) ?
100

Entry CC/C(=C(\c1ccccc1)c1ccc(OCCN(C)C)cc1)c1ccccc1 : reported Emax = ?
97

Fill in: Emax of CCN(CC)CCOc1ccc2c(c1)C(=O)c1cc(OCCN(CC)CC)ccc1-2 is ___
100

Requested read-out: Emax. Entry: CC[C@H]1OC(=O)[C@H](C)[C@@H](O[C@H]2C[C@@](C)(OC)[C@@H](O)[C@H](C)O2)[C@H](C)[C@@H](O[C@@H]2O[C@H](C)C[C@H](N(C)C)[C@H]2O)[C@](C)(O)C[C@@H](C)CN(C)[C@H](C)[C@@H](O)[C@]1(C)O
100

So what does the record say about Emax for CCN(CC)CCCC(C)Nc1ccnc2cc(Cl)ccc12 (centres unmarked) ?
98

Query: Emax; subject: CC[C@]1(O)C[C@H]2CN(CCc3c([nH]c4ccccc34)[C@@](C(=O)OC)(c3cc4c(cc3OC)N(C=O)[C@H]3[C@@](O)(C(=O)OC)[C@H](OC(C)=O)[C@]5(CC)C=CCN6CC[C@]43[C@@H]65)C2)C1
83

Name the recorded Emax for CC[C@H]1OC(=O)[C@H](C)[C@@H](O[C@H]2C[C@@](C)(OC)[C@@H](O)[C@H](C)O2)[C@H](C)[C@@H](O[C@@H]2O[C@H](C)C[C@H](N(C)C)[C@H]2O)[C@](C)(OC)C[C@@H](C)C(=O)[C@H](C)[C@@H](O)[C@]1(C)O .
100

Entry Cc1ccc(C(=O)Oc2ccc(C(O)CNC(C)(C)C)cc2OC(=O)c2ccc(C)cc2)cc1 (centres unmarked) : reported Emax = ?
85

Requested field: Emax. Item: CCCN(CCC)C(=O)C(CCC(=O)OCCCN1CCN(CCOC(=O)Cc2c(C)n(C(=O)c3ccc(Cl)cc3)c3ccc(OC)cc23)CC1)NC(=O)c1ccccc1 (centres unmarked)
93

Give its Emax value. Item: CN1CCN(CCCN2c3ccccc3Sc3ccc(C(F)(F)F)cc32)CC1
97

I have this compound here, CC(C)C[C@H](NC(=O)[C@H](CCc1ccccc1)NC(=O)CN1CCOCC1)C(=O)N[C@@H](Cc1ccccc1)C(=O)N[C@@H](CC(C)C)C(=O)[C@@]1(C)CO1 , and I need its recorded Emax.
57

Return reported Emax; argument: COC(=O)Nc1nc2ccc(C(=O)c3ccccc3)cc2[nH]1
88

Tell me the measured Emax of CN1CCN(CCCN2c3ccccc3Sc3ccc(S(=O)(=O)N(C)C)cc32)CC1 , please.
103

# Emax lookup, item O=C(c1ccc(OCCN2CCCCC2)cc1)c1c(-c2ccc(O)cc2)sc2cc(O)ccc12
100

Could you share which Emax value was measured for COc1cccc2c1C(=O)c1c(O)c3c(c(O)c1C2=O)C[C@@](O)(C(C)=O)C[C@@H]3O[C@H]1C[C@H](N)[C@H](O)[C@H](C)O1 ?
98

# lookup: Emax of CN1[C@@H]2CC[C@H]1C[C@@H](OC(c1ccccc1)c1ccccc1)C2
100

Tell me the measured Emax of CNCCCC12CCC(c3ccccc31)c1ccccc12 , please.
100

Returns the measured Emax for the input compound. Input: CC[C@@]1(O)C(=O)OCc2c1cc1n(c2=O)Cc2cc3c(CN(C)C)c(O)ccc3nc2-1
107

Which value of Emax has been reported for COc1cc2c(c(OC)c1OC)-c1ccc(OC)c(=O)cc1[C@@H](NC(C)=O)CC2 in the records?
73

What does the record list as Emax for COC(=O)Nc1nc2ccc(C(=O)c3cccs3)cc2[nH]1 ?
87

Suppose we examine the compound CN(C)CCCN1c2ccccc2CCc2ccc(Cl)cc21 ; what Emax value has been reported?
93

I am curious: what Emax value has been reported for OC(c1cc(C(F)(F)F)nc2c(C(F)(F)F)cccc12)C1CCCCN1 (centres unmarked) ?
94
